# Experimental System: KpNupC (Klebsiella pneumoniae)
# Construct: gene KPHS_38160; full-length, C-terminal biotin-acceptor domain tag (pT7-5/-BAD), expressed in E. coli JW2389 (nupC knockout)
# Assay Info: inhibition of [3H]-gemcitabine uptake in E. coli JW2389
# Assay type: cell-based
# Measurement Setup: read-out: Inhibition by Other Nucleosides / Ki (μM) (Adenosine)
Readout: Ki (µM)

{"columns": ["Structure As Smiles", "Experimental System", "Recorded Result"],
 "data": [
  ["Nc1ncnc2c1ncn2[C@@H]1O[C@H](CO)[C@@H](O)[C@H]1O", "KpNupC (Klebsiella pneumoniae)", 7.7]
]}

----------
# Experimental System: NupC (Escherichia coli)
# Construct: full-length, C-terminal biotin-acceptor domain tag (pT7-5/-BAD), expressed in E. coli JW2389 (nupC knockout)
# Assay Info: inhibition of [3H]-gemcitabine uptake in E. coli JW2389
# Type: cell-based
# Measurement Setup: read-out: Inhibition by Other Nucleosides / Ki (μM) (Adenosine)

{"columns": ["Structure As Smiles", "Ki [µM]"],
 "data": [
  ["Nc1ncnc2c1ncn2[C@@H]1O[C@H](CO)[C@@H](O)[C@H]1O", 5.4]
]}

----------
# Experimental System: KpNupG (Klebsiella pneumoniae)
# Construct: gene nupG; full-length, C-terminal biotin-acceptor domain tag (pT7-5/-BAD), expressed in E. coli JW2389 (nupC knockout)
# Assay Info: inhibition of [3H]-gemcitabine uptake in E. coli JW2389
# Assay type: cell-based
# Measurement Setup: read-out: Inhibition by Other Nucleosides / Ki (μM) (Cytidine)
Readout: Ki (µM)

{"columns": ["Structure As Smiles", "Experimental System", "Recorded Result"],
 "data": [
  ["Nc1ccn([C@@H]2O[C@H](CO)[C@@H](O)[C@H]2O)c(=O)n1", "KpNupG (Klebsiella pneumoniae)", 18.1]
]}

----------
# Experimental System: KpNupG (Klebsiella pneumoniae)
# Construct: gene nupG; full-length, C-terminal biotin-acceptor domain tag (pT7-5/-BAD), expressed in E. coli JW2389 (nupC knockout)
# Sequence (A6TDX2 1-417): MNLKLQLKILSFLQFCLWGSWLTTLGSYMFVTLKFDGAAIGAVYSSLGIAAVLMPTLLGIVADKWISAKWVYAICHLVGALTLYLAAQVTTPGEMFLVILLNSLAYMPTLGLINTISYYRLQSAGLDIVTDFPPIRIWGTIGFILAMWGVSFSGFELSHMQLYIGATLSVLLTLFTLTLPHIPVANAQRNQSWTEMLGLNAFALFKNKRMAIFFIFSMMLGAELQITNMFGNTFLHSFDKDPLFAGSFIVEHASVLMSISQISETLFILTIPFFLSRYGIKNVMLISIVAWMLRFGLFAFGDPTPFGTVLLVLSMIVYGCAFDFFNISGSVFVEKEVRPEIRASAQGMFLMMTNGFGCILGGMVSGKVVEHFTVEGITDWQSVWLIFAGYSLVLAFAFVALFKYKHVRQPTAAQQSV
# Assay Info: inhibition of [3H]-gemcitabine uptake in E. coli JW2389
# Format: cell-based
# Measurement Setup: read-out: Inhibition by Other Nucleosides / Ki (μM) (Guanosine)

{"columns": ["Molecule", "Ki / µM"],
 "data": [
  ["Nc1nc2c(ncn2[C@@H]2O[C@H](CO)[C@@H](O)[C@H]2O)c(=O)[nH]1 [guanosine]", 18.3]
]}

The reported numbers originate from paper PMC11241209.
